run_description: Assessment of coloration of deodorant or antiperspirant formulations containing perfuming ingredients with or without Haloscent D
Assay type: physicochemical
Design: key: CO: color; COYE: yelow color; VSCOYE: very slight yellow color; SCOYE: slight yellow color; VCOYE: very yellow color; NC: no color; DECO: decoloration; CL: cloud; VCL: very cloud; WH: white; VCOBR: very brown color; COPI: ping color
protocol_conditions: DEO STICK + Haloscent D 0.5 wt %, perfuming ingredient 0.5 wt %; 45° C.; after 15 days

| substance | Coloration of deodorant stick |
| --- | --- |
| 1-(3,3-dimethyl-1-cyclohexen-1-yl)-4-penten-1-one (A) + 1-(5,5-dimethyl-1-cyclohexen-1-yl)-4-penten-1-one (B) [DYNASCONE] | VCOYE |
| (+−)-(3E)-3-methyl-4-(2,6,6-trimethyl-2-cyclohexen-1-yl)-3-buten-2-one (A) + (+−)-(1E)-1-(2,6,6-trimethyl-2-cyclohexen-1-yl)-1-penten-3-one (B) [ISORALDEINE 70P] | VCOYE |
| 1-OXA-12-CYCLOHEXADECEN-2-ONE (A) + 1-OXA-13-CYCLOHEXADECEN-2-ONE [HABANOLIDE] | NC |
| (+−)-(4E)-3-METHYL-4-CYCLOPENTADECEN-1-ONE (A) + (+−)-(5E)-3-METHYL-5-CYCLOPENTADECEN-1-ONE (B) + (+−)-(5Z)-3-METHYL-5-CYCLOPENTADECEN-1-ONE (C) [MUSCENONE DELTA] | NC |

----------
run_description: Assessment of coloration of deodorant or antiperspirant formulations containing perfuming ingredients with or without Haloscent D
Format: physicochemical
Parameters: key: CO: color; COYE: yelow color; VSCOYE: very slight yellow color; SCOYE: slight yellow color; VCOYE: very yellow color; NC: no color; DECO: decoloration; CL: cloud; VCL: very cloud; WH: white; VCOBR: very brown color; COPI: ping color
protocol_conditions: AP Stick, perfuming ingredient 0.5 wt %; 3° C.; after 7 days

| compound | Coloration of antiperspirant stick |
| --- | --- |
| CC(C)=CCCC(C)CCO (racemic) [(+−)-3,7-DIMETHYL-6-OCTEN-1-OL] | DECO |
| CC(C)=CCC/C(C)=C/CO [(E)-3,7-DIMETHYL-2,6-OCTADIEN-1-OL] | DECO |
| c1ccc2[nH]ccc2c1 [2,3-BENZOPYRROLE] | DECO |

----------
run_description: Assessment of coloration of deodorant or antiperspirant formulations containing perfuming ingredients with or without Haloscent D
Format: physicochemical
Set-up: key: CO: color; COYE: yelow color; VSCOYE: very slight yellow color; SCOYE: slight yellow color; VCOYE: very yellow color; NC: no color; DECO: decoloration; CL: cloud; VCL: very cloud; WH: white; VCOBR: very brown color; COPI: ping color
protocol_conditions: AP Stick + Haloscent D 0.5 wt %, perfuming ingredient 0.5 wt %; 3° C.; after 7 days

| compound | Coloration of antiperspirant stick |
| --- | --- |
| c1ccc2[nH]ccc2c1 | COPI |
| CC(C)=CCC/C(C)=C/CO [(E)-3,7-DIMETHYL-2,6-OCTADIEN-1-OL] | VSCO |

----------
run_description: Assessment of coloration of deodorant or antiperspirant formulations containing perfuming ingredients with or without Haloscent D
Type: physicochemical
Design: key: CO: color; COYE: yelow color; VSCOYE: very slight yellow color; SCOYE: slight yellow color; VCOYE: very yellow color; NC: no color; DECO: decoloration; CL: cloud; VCL: very cloud; WH: white; VCOBR: very brown color; COPI: ping color
protocol_conditions: DEO STICK + Haloscent D 0.5 wt %, perfuming ingredient 0.5 wt %; 3° C.; after 15 days
measured_quantity: Coloration of deodorant stick

| substance | result |
| --- | --- |
| 1-(3,3-dimethyl-1-cyclohexen-1-yl)-4-penten-1-one (A) + 1-(5,5-dimethyl-1-cyclohexen-1-yl)-4-penten-1-one (B) [DYNASCONE] | SCOYE |
| (+−)-(4E)-3-METHYL-4-CYCLOPENTADECEN-1-ONE (A) + (+−)-(5E)-3-METHYL-5-CYCLOPENTADECEN-1-ONE (B) + (+−)-(5Z)-3-METHYL-5-CYCLOPENTADECEN-1-ONE (C) [MUSCENONE DELTA] | NC |
| (+−)-(3E)-3-methyl-4-(2,6,6-trimethyl-2-cyclohexen-1-yl)-3-buten-2-one (A) + (+−)-(1E)-1-(2,6,6-trimethyl-2-cyclohexen-1-yl)-1-penten-3-one (B) [ISORALDEINE 70P] | NC |
| 1-OXA-12-CYCLOHEXADECEN-2-ONE (A) + 1-OXA-13-CYCLOHEXADECEN-2-ONE [HABANOLIDE] | NC |
